Examples of compounds with documented TGI follow.
tested on: M14 melanoma; assay: NCI tumour cell line growth inhibition, 48 h

Please review the entries below; each comes with its answer.
| Compound | TGI |
| --- | --- |
| COC(=O)C1CCc2nnc(-c3ccccc3)n21 (stereo not drawn) | > 100 µM |
| N#CCCN(CCC#N)c1ccc(C(N=Nc2ccccc2)=Nc2ccc(F)cc2)cc1 | > 100 µM |

Proceeding to the next compound to report its TGI.
The reported TGI of the compound CCOC(=O)CN1C(=O)c2cc([N+](=O)[O-])cc3cc([N+](=O)[O-])cc(c23)C1=O was > 100 µM

###

# GI50 per record follows
system: HT29 colon; test: NCI tumour cell line growth inhibition, 48 h

| Molecule | Target or system | GI50 |
| --- | --- | --- |
| CC[C@H](C)[C@H](NC(=O)c1cccn1C)C(=O)N(C)[C@H](C[C@@H](OC(C)=O)c1nc(C(=O)N[C@@H](Cc2ccccc2)C[C@H](C)C(=O)OC)cs1)C(C)C | HT29 colon | 0.205 µM |
| O=P(O)(O)OCC1OC(n2cnc3c(NCc4ccccc4)ncnc32)C(O)C1O (stereo not drawn) | HT29 colon | 2.27 µM |
| O=C1NC(c2ccccc2)C2(C(=O)O)CN(C3CC3)c3cc(N4CCNCC4)c(F)cc3C2N1 (stereo not drawn) | HT29 colon | > 100 µM |

// GI50 lookup, molecule = C=C1CCC2C3(C)COC(c4ccccc4Cl)OC3CCC2(C)C1/C=C/C1=CCOC1=O (stereo not drawn) , result: 5.43 µM

Entry under test: COc1cc(NCCCCCN=C(N)NC(N)=NC(C)C)c2ncccc2c1 . Its GI50 was 4.44 µM

###

system: MOLT-4 leukemia; experiment: NCI tumour cell line growth inhibition, 48 h
Property measured: TGI

Example entries begin here.
| Compound | Target or system | TGI |
| --- | --- | --- |
| COC1(CC[C@H](C)COC2OC(CO)C(O)C(O)C2O)O[C@H]2C[C@H]3[C@@H]4CC=C5C[C@@H](OC6OC(CO)C(OC7OC(C)C(O)C(O)C7O)C(O)C6OC6OC(C)C(O)C(O)C6O)CC[C@]5(C)[C@H]4CC[C@]3(C)[C@H]2[C@@H]1C (some centres not stated) | MOLT-4 leukemia | > 100 µM |
| C[As+](C)(c1ccc(Br)c([N+](=O)[O-])c1)c1ccc(Br)c([N+](=O)[O-])c1.O=[N+]([O-])O | MOLT-4 leukemia | > 100 µM |
| CSc1nc(=O)c2nc(-c3cccs3)c(-c3cccs3)nc2n1C | MOLT-4 leukemia | > 100 µM |

Lab note: measured TGI of CCOC(=O)[C@@H](Cc1ccc(CCl)cc1)NC(C)=O was > 100 µM

Entry under test: O=C(Nc1cccc(C(F)(F)F)c1)Oc1ccc(Cl)c2cccnc12 . Its TGI was 22.8 µM

Notebook: O=c1c2c3c(sc2nc2n1N=C(c1ccc(Br)cc1)CS2)CCCC3 , TGI read as > 100 µM

Please fill in: TGI reported for CCOC(=O)c1c(-c2ccccc2)c(OC)cn1C = > 10 µM

The recorded TGI for entry CC1(C)CCC[C@]2(C)c3ccccc3C(=O)CC12 (some centres not stated) equals > 100 µM

Reported TGI of COc1ccc2c(c1)CN1CCc3c(cc(OC)c(OC)c3OC)C1C2 (configuration not stated) : > 100 µM

For NC(Cc1ccccc1)c1nccs1 (configuration not stated) the compound record lists TGI as > 100 µM

What the record says about CCOC(=O)CN1C(=O)c2cc([N+](=O)[O-])cc3cc([N+](=O)[O-])cc(c23)C1=O : TGI is > 64.9 µM

Oc1ccccc1/C=N/N1C(=S)N(C23CC4CC(CC(C4)C2)C3)C(=Nc2ccccc2)C1=Nc1ccccc1 has a reported TGI of > 100 µM

###

system: HCT-15 colon; test: NCI tumour cell line growth inhibition, 48 h; in the data active = GI50 below about 0.43 µM; inactive = the rest
Select the correct class. Options are active, inactive and nothing else.

# input Tell me the recorded outcome of this test for CC(=O)[O-].N.N.N.N.[Co+3].[O-][Cl+3]([O-])([O-])[O-].[OH3+] .
# output inactive

# input State the result this test recorded for Cc1ccc(C(=O)NC2CC2)cc1-c1ccc2[nH]ncc2c1 .
# output inactive

# input Lab log entry: CCN(CC)CCCCNc1c2ccc(Cl)cc2nc2ccc(OC)cc12 — outcome as called in the assay?
# output active

# input Recorded test call requested for CCC[CH2][Sn]1([CH2]CCC)[S]CC[N]1S(=O)(=O)c1ccc(C)cc1
# output inactive

# input Would you mind telling me which call this test gave CCn1c2ccccc2c2cc(C(=O)c3ccc(C)c4ccccc34)ccc21 ?
# output active

###

Listed here: items and their measured TGI.
tested on: NCI-H460 lung; assay: NCI tumour cell line growth inhibition, 48 h

Recorded results for 8 compounds are shown here.
| Compound | TGI |
| --- | --- |
| CSc1nc(Cl)c2c(n1)Sc1nc3ccccc3n1C2O (stereo unspecified) | > 74.6 µM |
| CSc1nc(=O)c2nc(-c3cccs3)c(-c3cccs3)nc2n1C | > 100 µM |
| CC/C(=C/c1ccc(OC)cc1OC)[N+](=O)[O-] | 7.56 µM |
| COC(=O)N/N=C(\C)CC(=O)Nc1ccc(Cl)cc1 | > 100 µM |
| O=C(c1ccc([N+](=O)[O-])cc1)N1CCCC1 | > 100 µM |
| NCCCCNCCCN1CCOC1=O | > 100 µM |
| CC[C@]12C=CCN3CCC4(c5cc([C@@]6(C(=O)OC)CC7CN(CCc8c6[nH]c6ccccc86)CC6CCCCC67)c(OC)cc5N(C)C4[C@](O)(C(=O)OC)C1OC(C)=O)[C@@H]32 (stereo partly specified) | 0.225 µM |
| CN(C)CCCNC(=O)N/N=C/c1ccccc1 | > 100 µM |

Record COc1ccc([C@]23CCC4(OCC(C)(C)CO4)[C@H]4CON(O[C@H](O[C@@H]5CCCCC5C(C)(C)c5ccccc5)C2)[C@@H]43)cc1OC (stereo partly specified) , field TGI: > 100 µM

Entry under test: COc1ccc(-c2cc3cc(Cl)cc(Cl)c3oc2=O)cc1OC . Its TGI was > 100 µM

TGI in this record for COC(=O)CC[C@]12C[C@]13CC[C@]1(C)C4C(C)C[C@]5(CC(C)C(=O)O5)OC4CC1(C)C3CCC2C(C)(C)O (stereo partly specified) : > 100 µM

TGI in this record for C=C1C(=O)O[C@H]2C[C@@H]1C(=O)CC(C)CCCC(C)=CCC[C@@]2(C)O (stereo partly specified) : > 25 µM

Record O/N=C/c1ccc(O)c(O)c1 , field TGI: > 100 µM

Lab note: measured TGI of N#Cc1cc(S(=O)(=O)Nc2nc3ccccc3o2)c(SCc2ccccc2)cc1Cl was 56.1 µM

Item: CC1=C(C(=O)OCCO[N+](=O)[O-])C(c2ccccc2[N+](=O)[O-])C(C(=O)OC(C)C)=C(C)N1 (stereo unspecified) | TGI: 34.2 µM

Recorded TGI (compound COCCNc1cncc(C(N)=O)c1 ): > 100 µM

Noted for NC(=O)c1ccc(Cl)c([N+](=O)[O-])c1 : its TGI reads > 100 µM

The value of TGI measured for the compound CC(C)=C/C(CC(O)(C(F)(F)F)C(F)(F)F)=N\O turned out to be > 100 µM

So, CO[P@@]1(=O)O[C@@H](c2ccccc2)[C@H](O)[C@]1(O)c1ccccc1 ? Its TGI was > 100 µM

For record CN(C)CCCNc1nc2ccccc2c2[nH]c3ccccc3c12 the listed TGI is 3.28 µM

Query O=C[C@@H](CO)O[C@H](C=O)n1cnc2c(=O)[nH]cnc21 yields TGI of 2130 µM

The reported value for CC(=N/NC(=S)N(C)C)/C(=N\NC(=S)N(C)C)c1ccccc1 in terms of TGI is 3.91 µM

Kindly note the recorded TGI for CCC1([N+](=O)[O-])CN(N=O)C1 , which is > 100 µM

# compound CCOC(=O)CN1C(=O)c2cc([N+](=O)[O-])cc3cc([N+](=O)[O-])cc(c23)C1=O ; its TGI = > 100 µM

The compound listed as N#CC1=C(N)NC(=O)NC12Nc1ccccc1N2 shows TGI equal to > 100 µM

###

test system: OVCAR-4 ovarian; test: NCI tumour cell line growth inhibition, 48 h
Property measured: TGI

Consider the following illustrative entries.
| Molecule | Result |
| --- | --- |
| O=C1NC2C(O)CCCCC2C12CCCCC2 (stereo not drawn) | > 100 µM |
| CN1c2ccccc2C2=C(c3ccccc3)CC[C@@H](C(=O)N3C4CC5CC[C@@]4(CS3(=O)=O)C5(C)C)[C@@H]21 (stereo partly drawn) | > 100 µM |
| Nc1c2ccccc2nc2c(C(=O)Nc3ccc(S(N)(=O)=O)cc3)cccc12 | > 100 µM |

Form: molecule = COc1ccc([C@]23CCC4(OCC(C)(C)CO4)[C@H]4CON(O[C@H](O[C@@H]5CCCCC5C(C)(C)c5ccccc5)C2)[C@@H]43)cc1OC (stereo partly drawn) ; TGI = > 100 µM

Briefly, TGI measured for OC(CC(O)(C(F)(F)Cl)C(F)(F)Cl)c1ccccc1 (stereo not drawn) : > 10 µM

Form: molecule = O=c1c2ccc(Cl)cc2oc2c(CNc3ccc(S(=O)(=O)Nc4ncccn4)cc3)cccc12 ; TGI = > 100 µM

Briefly, TGI measured for CCOC(=O)c1csc(NC(=O)CCN2CCN(C)CC2)n1 : > 100 µM

// recorded TGI for C[C@H]1[C@H](C)CC[C@]2(C(=O)OC3OC(CO)C(O)C(O)C3O)CC[C@]3(C)C(=CC[C@@H]4[C@@]5(C)C[C@@H](O)[C@@H]6OC(=O)c7cc(O)c(O)c(O)c7-c7c(cc(O)c(O)c7O)C(=O)OC[C@@]6(CO)[C@@H]5CC[C@]43C)[C@H]12 (stereo partly drawn) : 75.3 µM
